- testSystem: Thyrotropin-releasing hormone receptor (Homo sapiens)
- methodNotes: qHTS for Small Molecule Agonists and Allosteric Enhancers of Human TRH Receptor: Primary Screen for Agonists. Note: 0% is about no effect.
- conditionSummary: TRHR cells, calcium flux fluo-8, FDSS agonist mode; at 2 µM; hits give high values
- Description: NIH Chemical Genomics Center [NCGC] NIH Molecular Libraries Probe Centers Network [MLPCN] […] For the HTS assay freshly prepared cells are plated at a density of 2000/well in 3 ul of complete DMEM medium containing 10% serum in 1536-well plates and cultured over night at 37 C in a humidified incubator with 5% CO2. […] For the assay, assay plates were loaded into the FDSS kinetic plate reader. […]
Screen size: about 360,000 compounds; about 650 (0.18%) were called active. The sample holds actives, similar compounds and a random draw of the others, so the mix is not that of the screen.
observationType: activation (%)
Hi! Could you send only the number? It should be in %, unit omitted.

CC1CCCN(c2csc3ccc(F)cc3c2=O)C1 (stereo unspecified) = 0.824

[Q] I'm curious: which activation was measured for "C=CCC1=C/C(=C\c2c(N)n3nc(CC(=O)N4CCOCC4)sc3nc2=O)C=C(OC)C1=O" tested on Thyrotropin-releasing hormone receptor (Homo sapiens)?
[A] 162

[Q] Field: activation (Thyrotropin-releasing hormone receptor (Homo sapiens)). Entry: "COc1cccc(N2CCN(S(=O)(=O)c3ccc4c(c3)CCCN4C(C)=O)CC2)c1"
[A] -0.749

[Q] Tell me reported activation for Cc1ccc(C2c3[nH]c4ccccc4c3CCN2C(=O)c2cccc(C)c2)cc1 (stereo unspecified) , tested with Thyrotropin-releasing hormone receptor (Homo sapiens).
[A] 0.132

[Q] Item: "CCOc1ccccc1N(CC)C(=O)c1cc2ccc3cccnc3c2[nH]1" Test system: Thyrotropin-releasing hormone receptor (Homo sapiens) Read-out: activation Value: ?
[A] 2.85

###

- testSystem: Thyrotropin-releasing hormone receptor (Homo sapiens)
- methodNotes: qHTS for Small Molecule Agonists and Allosteric Enhancers of Human TRH Receptor: Primary Screen for Agonists. Note: 0% is about no effect.
- conditionSummary: TRHR cells, calcium flux fluo-8, FDSS agonist mode; at 2 µM; hits give high values
The whole screen tested about 360,000 compounds, of which about 650 (0.18%) were called active. The sample as a whole holds a higher share of actives than the screen did.
observationType: activation (%)
Answer with a number only, understood to be in %.

Examples from the recorded data:
COC(=O)c1ccccc1NC(=O)c1ccc(C#N)cc1 = 0.34
CN(c1ccccc1)c1ccc(/C=c2\s/c(=C(/C#N)C(=O)C(C)(C)C)n(Cc3ccco3)c2=O)cc1 = 40.8
Cc1ccccc1C(=O)NCc1nc(-c2ccc(Cl)cc2)no1 = -0.152
CCOc1ccccc1NC(=O)Cn1c(=O)n(Cc2ccco2)c(=O)c2sc3ccccc3c21 = -0.0246

Next item in the queue.
[Q] What activation value was documented for this compound, "COc1ccccc1C(=O)Nc1c(C(=O)N(C)Cc2ccccc2)sc2nc(C)c(Cl)c(C)c12" ?
[A] -1.19

###

- testSystem: Thyrotropin-releasing hormone receptor (Homo sapiens) (UniProt P34981)
- Sequence (P34981 whole entry, looked up): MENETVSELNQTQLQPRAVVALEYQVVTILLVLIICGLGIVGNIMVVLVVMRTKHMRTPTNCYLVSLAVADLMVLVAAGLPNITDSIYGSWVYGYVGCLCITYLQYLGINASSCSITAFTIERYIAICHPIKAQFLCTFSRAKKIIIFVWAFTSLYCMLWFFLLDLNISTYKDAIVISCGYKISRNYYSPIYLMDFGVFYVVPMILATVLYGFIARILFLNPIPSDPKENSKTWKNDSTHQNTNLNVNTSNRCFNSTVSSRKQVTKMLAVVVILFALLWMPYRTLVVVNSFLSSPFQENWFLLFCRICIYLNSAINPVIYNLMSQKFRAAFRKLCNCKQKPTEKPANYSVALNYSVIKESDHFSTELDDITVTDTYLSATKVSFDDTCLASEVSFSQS
- methodNotes: qHTS for Small Molecule Agonists and Allosteric Enhancers of Human TRH Receptor: Primary Screen for Agonists. Note: 0% is about no effect.
- conditionSummary: TRHR cells, calcium flux fluo-8, FDSS agonist mode; at 2 µM; hits give high values
About 650 (0.18%) of roughly 360,000 compounds were called active. This excerpt belongs to a sample that is enriched for actives.
Here the recorded activation is given for each entry.
Give the quantity in %, number only.

Look over these answered cases.
Cc1cc(C)cc(NC(=O)CSc2nc3nccnc3c(=O)n2CCc2c[nH]c3ccccc23)c1 = 0.728
CCCCN1C(=O)c2[nH]nc(-c3ccccc3O)c2C1c1cccc(OCc2ccccc2)c1 (stereo not given) = 0.132
Cc1nc2ccn(Cc3cccnc3)c(=O)c2cc1C(=O)N1CCN(c2ccccc2F)CC1 = -0.337
N#Cc1nc(Nc2cc(F)cc(Cl)c2)nc(NC2CCCC2)n1 = 1.3

Lab note: next compound to report on.
[Q] Name the reported activation value associated with the compound "Cc1ccc(-n2nc(C)c3c(C)cc(=O)n(CC(=O)Nc4ccc(C(C)C)cc4)c32)cc1"
[A] -0.803

Entry source: PubChem BioAssay AID493084
